# Test system: HCT-15 colon
# testSummary: NCI tumour cell line growth inhibition, 48 h
So I've got a bunch of molecules here, and I need their TGI values.

Prompt: Any idea what its TGI is? The molecule is "Nc1nc(Cl)cc(Oc2ccc(Cl)cc2)n1"
Completion: > 100 µM

Prompt: Any idea what its TGI is? The molecule is "CN(CCCNC(=O)c1[nH]nc2c1ccc1ccccc12)CCCNC(=O)c1[nH]nc2c1ccc1ccccc12"
Completion: 31.2 µM

Prompt: Any idea what its TGI is? The molecule is c1ccc(C2SCc3nc4ccccc4n32)cc1 (stereo not drawn)
Completion: > 100 µM

---

# Tested on: SNB-75 CNS
# testSummary: NCI tumour cell line growth inhibition, 48 h
So I've got a bunch of molecules here, and I need their TGI values.

Prompt: Any idea what its TGI is? The molecule is "O=C(Nc1n[nH]c2cc(-c3ccc(F)cc3)ccc12)C1CC1"
Completion: > 25 µM

Prompt: Any idea what its TGI is? The molecule is CCC(/C(=N/NC(=O)C[N+](C)(C)C)c1ccccc1)C1OC(=O)c2ccccc21 (configuration not stated)
Completion: > 100 µM

Prompt: Any idea what its TGI is? The molecule is O/N=C1/C(=C/c2ccc(Br)cc2)CCCC1C(NO)c1ccc(Br)cc1 (configuration not stated)
Completion: 36.4 µM

Prompt: Any idea what its TGI is? The molecule is "Nc1ccc2ncc(NCc3ccc(F)cc3)nc2c1"
Completion: > 100 µM

Prompt: Any idea what its TGI is? The molecule is "c1ccc2c(c1)CCCc1nnc3nc4ccccc4n3c1-2"
Completion: > 100 µM

Prompt: Any idea what its TGI is? The molecule is "O=C(C#Cc1ccccc1)Nc1ccccc1CC(c1c[nH]c2ccccc12)c1c[nH]c2ccccc12"
Completion: > 100 µM

Prompt: Any idea what its TGI is? The molecule is CC(C)C(N=C1CC2CCC1(C(=O)Nc1ccccc1O)C2(C)C)c1ccccc1 (configuration not stated)
Completion: > 10 µM

---

# Test system: HOP-92 NSCLC
# testSummary: NCI tumour cell line growth inhibition, 48 h
So I've got a bunch of molecules here, and I need their TGI values.
Entry rule: numbers only, all in µM.

Prompt: Any idea what its TGI is? The molecule is C=C1C(O)C2OC(=O)C(=C)C2C(OC(=O)/C(C)=C/C)CC2(C)OC2C2OC12 (centres undefined)
Completion: 65.4

Prompt: Any idea what its TGI is? The molecule is "COc1ccc2cc(CNCCOCCOCCNCc3ccc4cc(OC)ccc4c3)ccc2c1"
Completion: 3.05

Prompt: Any idea what its TGI is? The molecule is "Nc1ccc(Oc2ccc(C34CC5CC(C3)CC(c3ccc(Oc6ccc(N)c(O)c6)cc3)(C5)C4)cc2)cc1O"
Completion: 4.48

Prompt: Any idea what its TGI is? The molecule is "O=S1(=O)CC#CC[C@@H](CO)[C@@H](CO)CC#CC1"
Completion: 90.3

Prompt: Any idea what its TGI is? The molecule is O=C(Nc1ccn(C2CCC(COC(c3ccccc3)(c3ccccc3)c3ccccc3)O2)c(=O)n1)c1ccccc1 (centres undefined)
Completion: 4.74

Prompt: Any idea what its TGI is? The molecule is "CN1c2cccc[c]2[Sn]([CH3])([CH3])[c]2ccccc21"
Completion: 0.104

Prompt: Any idea what its TGI is? The molecule is OCC1OC(n2cnc3cc(Cl)c(Cl)cc32)C(O)C1O (centres undefined)
Completion: 99

---

So I've got a bunch of molecules here, and I need their TGI values.
# System: HOP-62 NSCLC
# testSummary: NCI tumour cell line growth inhibition, 48 h

Prompt: Any idea what its TGI is? The molecule is "COc1cc(OC)c(OC)cc1/C=C/c1ccc2ccccc2n1"
Completion: > 10 µM

Prompt: Any idea what its TGI is? The molecule is "Cc1ccc(C2=C(c3ccccc3)C(O)(c3ccccc3)C(c3ccccc3)=C2c2ccc(C)cc2)cc1"
Completion: > 100 µM

Prompt: Any idea what its TGI is? The molecule is "O=C(O)[C@@H](Cc1ccccc1)NS(=O)(=O)c1ccc(-c2ccccc2)cc1"
Completion: > 100 µM

Prompt: Any idea what its TGI is? The molecule is COC(=O)C1(N2CCOCC2)CCC([C@@H](c2ccccc2)C(C)[N+](=O)[O-])C1 (some centres undefined)
Completion: > 100 µM

---

# Test system: PC-3 prostate
# testSummary: NCI tumour cell line growth inhibition, 48 h
observedProperty: TGI

Prompt: Any idea what its TGI is? The compound is Cc1ccc(S(=O)(=O)N(CC(O)COc2ccccc2)c2ccccc2Cl)cc1 (stereo not drawn)
Completion: 30.8 µM

Prompt: Any idea what its TGI is? The compound is "C#CCn1c(=O)c2cc(OC)c(OC)cc2n(CC#C)c1=O"
Completion: > 10 µM

Prompt: Any idea what its TGI is? The compound is "COc1ccc(COc2ccc(Cc3cnc(N)nc3N)cc2OC)cc1"
Completion: > 25 µM

---

# System: SK-OV-3 ovarian
# testSummary: NCI tumour cell line growth inhibition, 48 h
observedProperty: TGI

Prompt: Any idea what its TGI is? The compound is COc1c(C(=O)CC2c3c(cc4oc(C)cc(=O)c4c3OC)OC(=N)C2c2nc3ccccc3[nH]2)c(O)c(OC)c2occc12 (stereo unspecified)
Completion: > 100 µM

Prompt: Any idea what its TGI is? The compound is "C=c1c2ccccc2oc2nc3[nH]c(N)c(C#N)c(N)c3c(=N)c12"
Completion: > 100 µM

Prompt: Any idea what its TGI is? The compound is CN1C(=O)CC(CC(=O)C2CCCCC2=O)CC1=O (stereo unspecified)
Completion: > 100 µM

Prompt: Any idea what its TGI is? The compound is "CC(C)Cc1cc(-c2cccn2C)c(C#N)c(=O)[nH]1"
Completion: > 100 µM

Prompt: Any idea what its TGI is? The compound is "CCCN1CCN(c2ccc3nc(-c4ccc5nc(-c6ccc(OCC)cc6)[nH]c5c4)[nH]c3c2)CC1"
Completion: 3.37 µM

Prompt: Any idea what its TGI is? The compound is "Clc1ccc(CCNCCNC2(c3cc4ccccc4s3)CCCCC2)cc1Cl"
Completion: 2.81 µM

---

So I've got a bunch of molecules here, and I need their TGI values.
# System: A498 renal
# testSummary: NCI tumour cell line growth inhibition, 48 h
Entry rule: numbers only, all in µM.

Prompt: Form field - read-out: TGI; system: A498 renal; submitted item: "COC(=O)/C(=C1\OC(=O)C(c2ccc(Cl)cc2)=C1O)c1ccc(Cl)cc1"
Completion: 47.8

Prompt: Form field - read-out: TGI; system: A498 renal; submitted item: "Cn1cnc([N+](=O)[O-])c1Sc1nnc(-c2ccc(Cl)cc2)n1C"
Completion: 81.8

---

So I've got a bunch of compounds here, and I need their TGI values.
# Test system: SK-OV-3 ovarian
# testSummary: NCI tumour cell line growth inhibition, 48 h

Prompt: Any idea what its TGI is? The compound is Cc1cc(C2CC(O)C(CO)O2)c(Br)cc1Br (centres undefined)
Completion: > 100 µM

Prompt: Any idea what its TGI is? The compound is "O=S1(=O)OCCOS(=O)(=O)C1C1c2ccccc2-c2ccccc21"
Completion: > 100 µM

Prompt: Any idea what its TGI is? The compound is "CCn1c(C)nc([N+](=O)[O-])c1Sc1ncc[nH]1"
Completion: > 100 µM

Prompt: Any idea what its TGI is? The compound is "Cn1c(SCc2ccc([N+](=O)[O-])cc2)nnc1C12CC3CC(CC(C3)C1)C2"
Completion: > 10 µM

---

# Tested on: SK-MEL-28 melanoma
# testSummary: NCI tumour cell line growth inhibition, 48 h
observedProperty: TGI

Prompt: Any idea what its TGI is? The compound is "COC(=O)c1cc(NC(=O)Cn2c3ccccc3c3ccccc32)cn1C"
Completion: > 100 µM

Prompt: Any idea what its TGI is? The compound is "NS(=O)(=O)c1ccc(NC(=O)Nc2cccc3ccccc23)cc1"
Completion: > 100 µM

Prompt: Any idea what its TGI is? The compound is O=[N+]([O-])c1ccc(NC(c2ccccc2)c2ccc3cccnc3c2O)cc1 (stereo not drawn)
Completion: > 100 µM

---

So I've got a bunch of compounds here, and I need their TGI values.
# System: LOX IMVI melanoma
# testSummary: NCI tumour cell line growth inhibition, 48 h

Prompt: Form field - read-out: TGI; system: LOX IMVI melanoma; submitted item: CC(=O)O[C@H]1C(=O)[C@@]2(C)C(C(OC(=O)c3ccccc3)[C@]3(O)CC(OC(=O)C(O)C(NC(=O)c4cccc(Cl)c4)c4ccccc4)C(C)=C1C3(C)C)[C@]1(OC(C)=O)CO[C@@H]1C[C@@H]2O (stereo partly specified)
Completion: > 10 µM

Prompt: Form field - read-out: TGI; system: LOX IMVI melanoma; submitted item: "COc1cc(/C=[N+](\[O-])c2ccccc2Cl)ccc1OC(=S)S"
Completion: > 100 µM

Prompt: Form field - read-out: TGI; system: LOX IMVI melanoma; submitted item: CC1O[C@@H]2CCCCC(=O)[C@]2(C)[C@H]1C (stereo partly specified)
Completion: > 100 µM

Prompt: Form field - read-out: TGI; system: LOX IMVI melanoma; submitted item: OCC1OC(NO)C(O)C(O)C1O (stereo unspecified)
Completion: > 100 µM

Prompt: Form field - read-out: TGI; system: LOX IMVI melanoma; submitted item: "CC(=O)Nc1ccc(S(=O)(=O)Nc2cnc3ccccc3n2)cc1"
Completion: > 100 µM

Prompt: Form field - read-out: TGI; system: LOX IMVI melanoma; submitted item: "CCCCCCCC(=O)[O-].N.N.N.N.N.[Co+3].[O-][Cl+3]([O-])([O-])[O-]"
Completion: > 100 µM
